# Measured On: T1, human glucagon receptor (human, UniProt P47871 26-477)
# T1 construct: whole, on cells; also called hGcgR; GcgR
# Test Summary: [125I]-Gcg competition SPA, hGcgR membranes
Measurement Kind: Ki

Some solved cases for reference:
1) YXEGTXTSDYSILLDKKAQXAFIEYLIEGGPSSG (Aib2; αMeF(2F)6; K17((2-[2-(2-Amino-ethoxy)-ethoxy]-acetyl)2-(γ-Glu)-CO-(CH2)16-CO2H); Aib20; C-terminal NH2) [Example 302]
18.5 nM
2) XXEGTFTSDYSIXLDKKAQXAFIEYLIEGGPSSGAPPPS (D-Tyr1; Aib2; αMeL13; K17((2-[2-(2-Amino-ethoxy)-ethoxy]-acetyl)2-(γ-Glu)-CO-(CH2)18-CO2H); Aib20; C-terminal NH2) [Example 334]
192 nM
3) XXEGTFTSDYSIXLDXKAQXAFIEYLIAGGPSSGAPPPS (D-Tyr1; Aib2; αMeL13; Orn16; K17((2-[2-(2-Amino-ethoxy)-ethoxy]-acetyl)2-(γ-Glu)-CO-(CH2)18-CO2H); Aib20; C-terminal NH2) [Example 346]
310 nM
4) YXEGTXTSDVSIXLDXKAQXTFIXXLIEGGPSSGAPPPS (Aib2; αMeF(2F)6; αMeL13; Orn16; K17((2-[2-(2-Amino-ethoxy)-ethoxy]-acetyl)2-(γ-Glu)-CO-(CH2)16-CO2H); Aib20; D-Glu24; αMeY25; C-terminal NH2) [Example 241]
167 nM
5) YXEGTXTSDYSILLDKKAQXAFIEYLIAGGPSSG (Aib2; αMeF(2F)6; K17((2-[2-(2-Amino-ethoxy)-ethoxy]-acetyl)2-(γ-Glu)-CO-(CH2)16-CO2H); Aib20; C-terminal NH2) [Example 313]
27.6 nM

For each of the binders below, state Ki.
1. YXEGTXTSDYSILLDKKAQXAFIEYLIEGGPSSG (Aib2; αMeF6; K17((2-[2-(2-Amino-ethoxy)-ethoxy]-acetyl)2-(γ-Glu)-CO-(CH2)16-CO2H); Aib20; C-terminal NH2, also called GG-650) [Example 301]
2. YXEGTXTSDXSIXLDXKAQXAFIXXLIEGGPSSGAPPPS (Aib2; αMeF(2F)6; 4Pal10; αMeL13; Orn16; K17((2-[2-(2-Amino-ethoxy)-ethoxy]-acetyl)2-(εK)-CO-(CH2)18-CO2H); Aib20; D-Glu24; αMeY25; C-terminal NH2) [Example 251]
3. XXEGTFTSDYSIXLDEKAQXAFIEYLIAGGPSSGAPPPS (D-Tyr1; Aib2; αMeL13; K17((2-[2-(2-Amino-ethoxy)-ethoxy]-acetyl)2-(γ-Glu)-CO-(CH2)18-CO2H); Aib20; C-terminal NH2) [Example 341]
4. YXEGTXTSDYSIXLDEKAQXEFIEXLIEGGPSSGAPPPS (Aib2; αMeF(2F)6; αMeL13; K17((2-[2-(2-Amino-ethoxy)-ethoxy]-acetyl)2-(γ-Glu)-CO-(CH2)18-CO2H); Aib20; αMeY25; C-terminal NH2) [Example 223]
5. XXEGTFTSDYSIXLDXKAQXEFIEXLIAGGPSSGAPPPS (D-Tyr1; Aib2; αMeL13; Orn16; K17((2-[2-(2-Amino-ethoxy)-ethoxy]-acetyl)2-(γ-Glu)-CO-(CH2)18-CO2H); Aib20; αMeY25; C-terminal NH2) [Example 293]
6. YXEGTFTSDYSIXLDEKAQXAFIEYLIEGGPSSGAPPPS (Aib2; αMeL13; K17((2-[2-(2-Amino-ethoxy)-ethoxy]-acetyl)2-(γ-Glu)-CO-(CH2)16-CO2H); Aib20; C-terminal NH2) [Example 323]

(A)
1: 44.4 nM; 2: 21.2 nM; 3: 39.7 nM; 4: 46.5 nM; 5: 668 nM; 6: 300 nM

Sure, the documented Ki for YXEGTFTSDYSIXLDEKAQXAFIEYLIEGGPSSG (Aib2; αMeL13; K17((2-[2-(2-Amino-ethoxy)-ethoxy]-acetyl)2-(γ-Glu)-CO-(CH2)16-CO2H); Aib20; C-terminal NH2) [Example 303] is 502 nM
